- Species: Rattus norvegicus
- Assay procedure: Open TG-GATES - Regimen: Daily Repeat
- Type: toxicity, organism-based, Sprague-Dawley
- Set-up: regimen Daily Repeat, gender Male, age 6 weeks
- Condition label: in vivo, po, 1000 mg/kg, 72 h, tissue Blood, route gavage, dose level High, time 3 day
Please respond with reported Fbg for every item in the list.
State the answer as a number, implicitly in mg/dL.

Fill blank: measured Fbg of the molecule `COC1=CC(=O)C[C@@H](C)[C@]12Oc1c(Cl)c(OC)cc(OC)c1C2=O` is ____.
220.8

Same again, this time with COc1ccc2[nH]c([S+]([O-])Cc3ncc(C)c(OC)c3C)nc2c1 (stereo unspecified)
196

Same again, this time with CC(C)OC(=O)C(C)(C)Oc1ccc(C(=O)c2ccc(Cl)cc2)cc1 [FENOFIBRATE]
208.2

Same again, this time with CCOC(=O)CCC(=O)O[C@H]1[C@H](O[C@@H]2[C@@H](C)[C@H](O[C@H]3C[C@@](C)(OC)[C@@H](O)[C@H](C)O3)[C@@H](C)C(=O)O[C@H](CC)[C@@](C)(O)[C@H](O)[C@@H](C)C(=O)[C@H](C)C[C@@]2(C)O)O[C@H](C)C[C@@H]1N(C)C [ERYTHROMYCIN ETHYLSUCCINATE]
325

Same again, this time with `NC(N)=Nc1nc(CSCCC(N)=NS(N)(=O)=O)cs1`
226.2

Same again, this time with CCOc1ccc(NC(=O)CC(C)O)cc1 (stereo unspecified)
270.2

====

- Species: Rattus norvegicus
- Assay procedure: Open TG-GATES - Regimen: Single
- Format: toxicity, organism-based, Sprague-Dawley
- Design: regimen Single, gender Male, age 6 weeks
- Condition label: in vivo, po, 1000 mg/kg, 9 h, tissue Blood, route gavage, dose level High
Measure name: Neu
Please don't drop the unit; write it after the number.

Fill blank: measured Neu of the compound CCOC(=O)CCC(=O)O[C@H]1[C@H](O[C@@H]2[C@@H](C)[C@H](O[C@H]3C[C@@](C)(OC)[C@@H](O)[C@H](C)O3)[C@@H](C)C(=O)O[C@H](CC)[C@@](C)(O)[C@H](O)[C@@H](C)C(=O)[C@H](C)C[C@@]2(C)O)O[C@H](C)C[C@@H]1N(C)C [ERYTHROMYCIN ETHYLSUCCINATE] is ____.
19.8%

Same again, this time with COc1ccc2[nH]c([S+]([O-])Cc3ncc(C)c(OC)c3C)nc2c1 (centres undefined)
19%

Same again, this time with `COC1=CC(=O)C[C@@H](C)[C@]12Oc1c(Cl)c(OC)cc(OC)c1C2=O`
21.6%

Same again, this time with `NC(N)=Nc1nc(CSCCC(N)=NS(N)(=O)=O)cs1`
17%

====

Please respond with reported Mono for every item in the list.
- Species: Rattus norvegicus
- Assay procedure: Open TG-GATES - Regimen: Single
- Type: toxicity, organism-based, Sprague-Dawley
- Design: regimen Single, gender Male, age 6 weeks
- Condition label: in vivo, po, 30 mg/kg, 24 h, tissue Blood, route gavage, dose level Middle
Please don't drop the unit; write it after the number.

Fill blank: measured Mono of the compound `CN(C)CCCN1c2ccccc2CCc2ccccc21` is ____.
2.4%

Same again, this time with `CN(C)CCN(Cc1cccs1)c1ccccn1`
1.6%

Same again, this time with `CC1=C(/C=C/C(C)=C/C=C/C(C)=C/CO)C(C)(C)CCC1`
3%

Same again, this time with `CN(C)CCCN1c2ccccc2CCc2ccc(Cl)cc21`
2.6%
